# Test system: JEG-3
# TEST_SUMMARY: Primary qHTS to identify gynecologic anti-cancer compounds using libraries of approved drugs and bioactive compounds (AID 1345084); also: potency is read from the fitted curve at half-maximal effect; nearly all actives have a fitted effect of over 55% in size
# MEASUREMENT_SETUP: Gynecologic cancer cell panel viability, ATPlite luminescence, 48 h; series mostly up to 57.5 µM
Results filed as inconclusive are left out. Calls of active or inactive are those of the source. Calls follow the shape of the dose curve; as a rule, active = well fitted cell-killing curve with a large enough effect; inconclusive = small, poorly fitted or top-dose-only effect, or effect the other way; inactive = flat fitted curve, though single readings scatter.
A collection of compounds and their measured Potency

// solved cases for Potency follow
COMPOUND | READING
Nc1ncnc2c1nc(Cl)n2C1OC2COP(=O)(O)OC2C1O (centres undefined) | 15.8 µM (active)
O=C(Nc1cccc2cccnc12)c1ccc(N2C(=O)[C@@H]3C4C=CC(C4)[C@@H]3C2=O)cc1 | 31.6 µM (active)
C#CC(=O)N(c1ccc(OC)cc1OC)C(C(=O)NCC(=O)OCC)c1cccs1 (centres undefined) | 15.8 µM (active)
C=C(C)C1CC(O)C(C)C12CC(O)C1(C)OC1C2O (centres undefined) | 28.2 µM (active)
COc1ccc([C@H]2OC[C@H]3O[C@@H](O[C@H]4[C@@H]2NC[C@@H]4O)[C@H](O)[C@H]3O)cc1 | 5.01 µM (active)

Which Potency value is on record for Cc1c(C(=O)Nc2ccc(N3CCC(N4CCOCC4)CC3)c(C#N)c2)cnn1-c1ccc(Cl)cc1 ?
0.794 µM (active)

Which Potency value is on record for Oc1cccc(C2NC(=S)Nc3cccc(F)c32)c1 (centres undefined) ?
22.4 µM (active)

Which Potency value is on record for COc1cc2c(NC3CCN(C(C)C)CC3)nc(N3CCC(F)(F)CC3)nc2cc1OCCCN1CCCC1 ?
22.4 µM (active)

Which Potency value is on record for CCC1C(=O)N(C)c2cnc(Nc3ccc(C(=O)NC4CCN(C)CC4)cc3OC)nc2N1C1CCCC1 (centres undefined) ?
28.2 µM (active)
